System: Streptococcus pyogenes PIU 2548
The following compounds are listed with their measured MIC values.
Write down the numeric answer in µg/mL and omit the unit.

* CC[C@H]1OC(=O)[C@H](C)C(=O)[C@H](C)[C@@H](O[C@@H]2O[C@H](C)C[C@H](N(C)C)[C@H]2O)[C@](C)(OC/C=C/c2ccc3ncc(-c4ccco4)cc3c2)C[C@@H](C)C(=O)[C@H](C)[C@H]2NC(=O)O[C@@]21C | 0.2
* CC[C@H]1OC(=O)[C@H](C)C(=O)[C@H](C)[C@@H](O[C@@H]2O[C@H](C)C[C@H](N(C)C)[C@H]2O)[C@](C)(OCC#Cc2ccc(-c3cncnc3)s2)C[C@@H](C)C(=O)[C@H](C)[C@H]2NC(=O)O[C@@]21C | 0.1
* CC[C@H]1OC(=O)[C@H](C)C(=O)[C@H](C)[C@@H](O[C@@H]2O[C@H](C)C[C@H](N(C)C)[C@H]2O)[C@](C)(OCC#Cc2ccc(-c3cnc4ccccc4n3)s2)C[C@@H](C)C(=O)[C@H](C)[C@H]2NC(=O)O[C@@]21C | 0.2

Turning now to a further record.
*Q* Recorded MIC for `CC[C@H]1OC(=O)[C@H](C)C(=O)[C@H](C)[C@@H](O[C@@H]2O[C@H](C)C[C@H](N(C)C)[C@H]2O)[C@](C)(OCC#Cc2ccc(-c3nccs3)s2)C[C@@H](C)C(=O)[C@H](C)[C@H]2NC(=O)O[C@@]21C` , please?
*A* 0.1

---

Tested on: Streptococcus pyogenes EES61
TEST: in vitro antibacterial activity (MIC), agar dilution
Format: cell-based
RUN PARAMETERS: organism code LL; BHI agar, 35-37° C., 20 to 24 hours; unit assumed
The following compounds are listed with their measured MIC values.
Write down the numeric answer in µg/mL and omit the unit.

• CC[C@H]1OC(=O)[C@H](C)C(=O)[C@H](C)[C@@H](O[C@@H]2O[C@H](C)C[C@H](N(C)C)[C@H]2O)[C@](C)(OC/C=C/c2ccc(-c3cccs3)s2)C[C@@H](C)C(=O)[C@H](C)[C@H]2NC(=O)O[C@@]21C = 0.01
• CC[C@H]1OC(=O)[C@H](C)C(=O)[C@H](C)[C@@H](O[C@@H]2O[C@H](C)C[C@H](N(C)C)[C@H]2O)[C@](C)(OCC#Cc2ccc(-c3ccco3)s2)C[C@@H](C)C(=O)[C@H](C)[C@H]2NC(=O)O[C@@]21C = 0.1
• CC[C@H]1OC(=O)[C@H](C)C(=O)[C@H](C)[C@@H](O[C@@H]2O[C@H](C)C[C@H](N(C)C)[C@H]2O)[C@](C)(OC/C=C/c2ccc(-c3ccc(Cl)c(Cl)c3)s2)C[C@@H](C)C(=O)[C@H](C)[C@H]2NC(=O)O[C@@]21C = 0.1

Turning now to a further record.
*Q* Recorded MIC for `CC[C@H]1OC(=O)[C@H](C)C(=O)[C@H](C)[C@@H](O[C@@H]2O[C@H](C)C[C@H](N(C)C)[C@H]2O)[C@](C)(OC/C=C/c2ccc(-c3ncccn3)s2)C[C@@H](C)C(=O)[C@H](C)[C@H]2NC(=O)O[C@@]21C` , please?
*A* 0.01

---

Tested on: Escherichia coli DC-2
ASSAY READOUT: MIC (µg/mL)
Write down the numeric answer in µg/mL and omit the unit.

* CC[C@H]1OC(=O)[C@H](C)C(=O)[C@H](C)[C@@H](O[C@@H]2O[C@H](C)C[C@H](N(C)C)[C@H]2O)[C@](C)(OCC#Cc2ccc(-c3ncccn3)s2)C[C@@H](C)C(=O)[C@H](C)[C@H]2NC(=O)O[C@@]21C | 25

Turning now to a further record.
*Q* Recorded MIC for `CC[C@H]1OC(=O)[C@H](C)C(=O)[C@H](C)[C@@H](O[C@@H]2O[C@H](C)C[C@H](N(C)C)[C@H]2O)[C@](C)(OC/C=C/c2cnc(-c3cccnc3)s2)C[C@@H](C)C(=O)[C@H](C)[C@H]2NC(=O)O[C@@]21C` , please?
*A* 50

---

System: Escherichia coli DC-2
The following molecules are listed with their measured MIC values.

Solved entries:
- CC[C@H]1OC(=O)[C@H](C)C(=O)[C@H](C)[C@@H](O[C@@H]2O[C@H](C)C[C@H](N(C)C)[C@H]2O)[C@](C)(OCC#Cc2ccc(-c3cccc(NC(C)=O)c3)s2)C[C@@H](C)C(=O)[C@H](C)[C@H]2NC(=O)O[C@@]21C: 100 µg/mL
- CC[C@H]1OC(=O)[C@H](C)C(=O)[C@H](C)[C@@H](O[C@@H]2O[C@H](C)C[C@H](N(C)C)[C@H]2O)[C@](C)(OC/C=C/c2cncc(-c3cncs3)c2)C[C@@H](C)C(=O)[C@H](C)[C@H]2NC(=O)O[C@@]21C: 25 µg/mL
- CC[C@H]1OC(=O)[C@H](C)C(=O)[C@H](C)[C@@H](O[C@@H]2O[C@H](C)C[C@H](N(C)C)[C@H]2O)[C@](C)(OC/C=C/c2cncc(Br)c2)C[C@@H](C)C(=O)[C@H](C)[C@H]2NC(=O)O[C@@]21C: 50 µg/mL
- CC[C@H]1OC(=O)[C@H](C)C(=O)[C@H](C)[C@@H](O[C@@H]2O[C@H](C)C[C@H](N(C)C)[C@H]2O)[C@](C)(OC/C=C/c2nc(-c3cccs3)cs2)C[C@@H](C)C(=O)[C@H](C)[C@H]2NC(=O)O[C@@]21C: > 100 µg/mL
- CC[C@H]1OC(=O)[C@H](C)C(=O)[C@H](C)[C@@H](O[C@@H]2O[C@H](C)C[C@H](N(C)C)[C@H]2O)[C@](C)(OCC#Cc2ccc(-c3cc4ccccc4s3)s2)C[C@@H](C)C(=O)[C@H](C)[C@H]2NC(=O)O[C@@]21C: > 100 µg/mL
- CC[C@H]1OC(=O)[C@H](C)C(=O)[C@H](C)[C@@H](O[C@@H]2O[C@H](C)C[C@H](N(C)C)[C@H]2O)[C@](C)(OC/C=C/c2cncc(-c3cccnc3)c2)C[C@@H](C)C(=O)[C@H](C)[C@H]2NC(=O)O[C@@]21C: 25 µg/mL
- CC[C@H]1OC(=O)[C@H](C)C(=O)[C@H](C)[C@@H](O[C@@H]2O[C@H](C)C[C@H](N(C)C)[C@H]2O)[C@](C)(OC/C=C/c2ccc(-c3cnc(N)s3)s2)C[C@@H](C)C(=O)[C@H](C)[C@H]2NC(=O)O[C@@]21C: 25 µg/mL
- CC[C@H]1OC(=O)[C@H](C)C(=O)[C@H](C)[C@@H](O[C@@H]2O[C@H](C)C[C@H](N(C)C)[C@H]2O)[C@](C)(OC/C=C/c2cnc(-c3cccs3)s2)C[C@@H](C)C(=O)[C@H](C)[C@H]2NC(=O)O[C@@]21C: 100 µg/mL
- CC[C@H]1OC(=O)[C@H](C)C(=O)[C@H](C)[C@@H](O[C@@H]2O[C@H](C)C[C@H](N(C)C)[C@H]2O)[C@](C)(OC/C=C/c2ccc(-c3ncccn3)s2)C[C@@H](C)C(=O)[C@H](C)[C@H]2NC(=O)O[C@@]21C: 50 µg/mL
- CC[C@H]1OC(=O)[C@H](C)C(=O)[C@H](C)[C@@H](O[C@@H]2O[C@H](C)C[C@H](N(C)C)[C@H]2O)[C@](C)(OC/C=C/c2ccc(-c3nccs3)s2)C[C@@H](C)C(=O)[C@H](C)[C@H]2NC(=O)O[C@@]21C: 100 µg/mL

Turning now to a further record.
*Q* Value wanted: MIC (Escherichia coli DC-2) of entry `CC[C@H]1OC(=O)[C@H](C)C(=O)[C@H](C)[C@@H](O[C@@H]2O[C@H](C)C[C@H](N(C)C)[C@H]2O)[C@](C)(OCC#Cc2ccc(-c3cncs3)s2)C[C@@H](C)C(=O)[C@H](C)[C@H]2NC(=O)O[C@@]21C`
*A* 50 µg/mL

---

Test system: Streptococcus Pneumonia 5649
The following compounds are listed with their measured MIC values.
Write down the numeric answer in µg/mL and omit the unit.

Solved entries:
• CC[C@H]1OC(=O)[C@H](C)C(=O)[C@H](C)[C@@H](O[C@@H]2O[C@H](C)C[C@H](N(C)C)[C@H]2O)[C@](C)(OC/C=C/c2ccc(-c3cccs3)s2)C[C@@H](C)C(=O)[C@H](C)[C@H]2NC(=O)O[C@@]21C = 0.25
• CC[C@H]1OC(=O)[C@H](C)C(=O)[C@H](C)[C@@H](O[C@@H]2O[C@H](C)C[C@H](N(C)C)[C@H]2O)[C@](C)(OCC#Cc2ccc(-c3cccs3)s2)C[C@@H](C)C(=O)[C@H](C)[C@H]2NC(=O)O[C@@]21C = 0.125
• CC[C@H]1OC(=O)[C@H](C)C(=O)[C@H](C)[C@@H](O[C@@H]2O[C@H](C)C[C@H](N(C)C)[C@H]2O)[C@](C)(OC/C=C/c2cnc(-c3cncnc3)s2)C[C@@H](C)C(=O)[C@H](C)[C@H]2NC(=O)O[C@@]21C = 0.5
• CC[C@H]1OC(=O)[C@H](C)C(=O)[C@H](C)[C@@H](O[C@@H]2O[C@H](C)C[C@H](N(C)C)[C@H]2O)[C@](C)(OCC#Cc2ccc(-c3cncc(C(=O)NN(C)C)c3)s2)C[C@@H](C)C(=O)[C@H](C)[C@H]2NC(=O)O[C@@]21C = 1
• CC[C@H]1OC(=O)[C@H](C)C(=O)[C@H](C)[C@@H](O[C@@H]2O[C@H](C)C[C@H](N(C)C)[C@H]2O)[C@](C)(OCC#Cc2ccc(-c3cccc(OC)c3)s2)C[C@@H](C)C(=O)[C@H](C)[C@H]2NC(=O)O[C@@]21C = 0.25
• CC[C@H]1OC(=O)[C@H](C)C(=O)[C@H](C)[C@@H](O[C@@H]2O[C@H](C)C[C@H](N(C)C)[C@H]2O)[C@](C)(OCC#Cc2ccc(-c3ccco3)s2)C[C@@H](C)C(=O)[C@H](C)[C@H]2NC(=O)O[C@@]21C = 0.25

*Q* Value wanted: MIC (Streptococcus Pneumonia 5649) of entry `CC[C@H]1OC(=O)[C@H](C)C(=O)[C@H](C)[C@@H](O[C@@H]2O[C@H](C)C[C@H](N(C)C)[C@H]2O)[C@](C)(OCC#Cc2ccc(-c3ccsc3)s2)C[C@@H](C)C(=O)[C@H](C)[C@H]2NC(=O)O[C@@]21C`
*A* 0.25

*Q* Value wanted: MIC (Streptococcus Pneumonia 5649) of entry `CC[C@H]1OC(=O)[C@H](C)C(=O)[C@H](C)[C@@H](O[C@@H]2O[C@H](C)C[C@H](N(C)C)[C@H]2O)[C@](C)(OC/C=C/c2nc(-c3cccs3)cs2)C[C@@H](C)C(=O)[C@H](C)[C@H]2NC(=O)O[C@@]21C`
*A* 0.25
